Test system: chamomile (scentless chamomile, Matricaria inodora)
Assay: Test D pre-/postemergence controlled growth environment herbicide test
Assay type: in vivo
Conditions: Preemergence, 250 g ai/ha, scale 0 to 100
From the text: […]
Outcome measure: Plant response rating
Give bare numbers.

// below: answered compounds
{"Structure smiles": "Cc1cc(=O)n(-c2ccc(F)cc2)nc1Oc1ccnc(C(F)(F)F)c1", "Recorded measurement": 80}
{"Structure smiles": "COc1cc(=O)n(-c2ccc(F)cc2)nc1Cc1ccnc(C(F)(F)F)c1", "Recorded measurement": 100}
{"Structure smiles": "Cc1cc(=O)n(-c2ccc(F)cc2)nc1Cc1ccnc(C(F)(F)F)c1", "Recorded measurement": 90}

Attention now shifts to the item below.
Please supply the value of reported Plant response rating for the item Cc1cc(=O)n(-c2ccc(C(F)(F)F)cc2)nc1Cc1ccnc(C(F)(F)F)c1 50

###

System: sedge, umbrella (small-flower umbrella sedge, Cyperus difformis)
Experiment: Test B flooded paddy test
Format: in vivo
Settings: Cyperus difformis, 312 h; Flood, 250 g ai/ha; scale of 0 to 100, 0 is no effect, 100 is complete control; 13 to 15 d; read-out: Plant response rating, Sedge, Umbrella
Outcome measure: pest or weed control at 250 g/ha
Put your answer as a value accompanied by its unit after it.

// known answers, use as guide
{"Molecule": "CCOc1cc(=O)n(-c2ccc(F)cc2)nc1C(=O)c1ccnc(C(F)(F)F)c1", "pest or weed control at 250 g/ha": "80%"}
{"Molecule": "Cc1cc(=O)n(-c2ccc(F)cc2)nc1Oc1ccnc(C(F)(F)F)c1", "pest or weed control at 250 g/ha": "75%"}
{"Molecule": "Cc1cc(=O)n(-c2ccc(F)cc2)nc1Cn1ccc(C(F)(F)F)n1", "pest or weed control at 250 g/ha": "0%"}

# context switch: different molecule, same pest or weed control at 250 g/ha
Give the measured pest or weed control at 250 g/ha for CCOc1cc(=O)n(-c2ccc(F)cc2)nc1C(O)c1ccnc(C(F)(F)F)c1 (stereo not shown) 70%

###

Exercise: for every item that follows, state its recorded Plant response rating.
Tested on: lambsquarters (Chenopodium album)
Test: Test D pre-/postemergence controlled growth environment herbicide test
Format: in vivo
Settings: Postemergence, 250 g ai/ha, scale 0 to 100
Answers are plain numbers.

{"Structure smiles": "COc1cc(=O)n(-c2ccc(F)cc2)nc1Cc1ccnc(C(F)(F)F)c1", "Plant response rating": 95}
{"Structure smiles": "Cc1cc(=O)n(-c2ccc(F)cc2)nc1Cc1ccnc(C(F)(F)F)c1", "Plant response rating": 40}

The following molecules each have a reported value; give each one's Plant response rating.
1. Cc1cc(=O)n(-c2ccc(F)cc2)nc1Oc1ccnc(C(F)(F)F)c1
2. Cc1cc(=O)n(-c2ccc(C(F)(F)F)cc2)nc1Cc1ccnc(C(F)(F)F)c1

1: 90; 2: 80

###

System: blackgrass (Alopecurus myosuroides)
Experiment: Test D pre-/postemergence controlled growth environment herbicide test
Assay type: in vivo
Conditions: Preemergence, 31 g ai/ha, scale 0 to 100
Provide the reported Plant response rating of each item.

{"Molecule": "Cc1cc(=O)n(-c2ccc(F)cc2)nc1Oc1ccnc(C(F)(F)F)c1 [Compound 14]", "Recorded measurement": 0}
{"Molecule": "Cc1cc(=O)n(-c2ccc(F)cc2)nc1Cc1ccnc(C(F)(F)F)c1 [Compound 1]", "Recorded measurement": 0}
{"Molecule": "COc1cc(=O)n(-c2ccc(F)cc2)nc1Cc1ccnc(C(F)(F)F)c1 [Compound 17]", "Recorded measurement": 0}

Turning now to a further molecule:
Let me know recorded Plant response rating for Cc1cc(=O)n(-c2ccc(C(F)(F)F)cc2)nc1Cc1ccnc(C(F)(F)F)c1 [Compound 2] , thanks. 5

###

Provide the recorded Plant response rating for the entries that follow.
System: wheat, spring (spring wheat, Triticum aestivum)
Assay: Test D pre-/postemergence controlled growth environment herbicide test
Assay type: in vivo
Conditions: Preemergence, 125 g ai/ha, scale 0 to 100
One number for each entry.

Go through the items and report each one's Plant response rating.
1. COc1cc(=O)n(-c2ccc(F)cc2)nc1Cc1ccnc(C(F)(F)F)c1 [Compound 17]
2. Cc1cc(=O)n(-c2ccc(F)cc2)nc1Cc1ccnc(C(F)(F)F)c1 [Compound 1]

1. 30
2. 10

Give Plant response rating for each of the items listed below.
1. Cc1cc(=O)n(-c2ccc(C(F)(F)F)cc2)nc1Cc1ccnc(C(F)(F)F)c1 [Compound 2]
2. Cc1cc(=O)n(-c2ccc(F)cc2)nc1Oc1ccnc(C(F)(F)F)c1 [Compound 14]

1: 15; 2: 10

###

Test system: morningglory (Ipomoea spp.)
Experiment: Test A pre-/postemergence greenhouse herbicide test
Assay type: in vivo
Conditions: Postemergence, 125 g ai/ha; 0 to 100 scale (0 no effect, 100 complete control), approx. 10 d
From the text: […] Plants ranged in height from 2 to 10 cm and were in the one- to two-leaf stage for the postemergence treatment. Treated plants and untreated controls were maintained in a greenhouse for approximately 10 d, after which time all treated plants were compared to untreated controls and visually evaluated for injury. […]
Assign Plant response rating, Morningglory to each entry below.
Give bare numbers.

{"Structure smiles": "CCOc1cc(=O)n(-c2ccc(C(F)(F)F)cc2)nc1Cc1ccnc(C(F)(F)F)c1", "Plant response rating, Morningglory": 30}

For every item below, please supply its Plant response rating, Morningglory.
1. CCCOc1cc(=O)n(-c2ccc(C(F)(F)F)cc2)nc1Cc1ccnc(C(F)(F)F)c1
2. Cc1cc(=O)n(-c2ccc(F)cc2)nc1Cc1cccc(C(F)(F)F)c1
3. Cc1cc(=O)n(-c2ccccc2)nc1Oc1ccnc(C(F)(F)F)c1
4. Cc1cc(=O)n(-c2ccc(F)cc2)nc1Oc1cccc(C(F)(F)F)n1
5. Cc1cc(Oc2cc(C(F)(F)F)ccn2)nn(-c2ccc(F)cc2)c1=O

1. 10
2. 80
3. 100
4. 50
5. 0

Lab note: each compound below needs its Plant response rating, Morningglory filled in.
1. CN(C)c1cc(=O)n(-c2ccc(C(F)(F)F)cc2)nc1Cc1ccnc(C(F)(F)F)c1
2. CCCc1cc(=O)n(-c2ccc(F)cc2)nc1Cc1ccnc(C(F)(F)F)c1
3. CN(C)c1cc(=O)n(-c2ccc(F)cc2)nc1Cc1ccnc(C(F)(F)F)c1

30
50
50

###

Test system: oilseed rape (Brassica napus)
Assay: Test D pre-/postemergence controlled growth environment herbicide test
Assay type: in vivo
Conditions: Preemergence, 31 g ai/ha, scale 0 to 100
Task for the reader: assign each of the following compounds its reported Plant response rating.
Give bare numbers.

These recorded examples may help you get a feel for the data.
{"Compound": "COc1cc(=O)n(-c2ccc(F)cc2)nc1Cc1ccnc(C(F)(F)F)c1 [Compound 17]", "Outcome measure": "Plant response rating", "Recorded measurement": 25}
{"Compound": "Cc1cc(=O)n(-c2ccc(F)cc2)nc1Oc1ccnc(C(F)(F)F)c1 [Compound 14]", "Outcome measure": "Plant response rating", "Recorded measurement": 5}
{"Compound": "Cc1cc(=O)n(-c2ccc(C(F)(F)F)cc2)nc1Cc1ccnc(C(F)(F)F)c1 [Compound 2]", "Outcome measure": "Plant response rating", "Recorded measurement": 20}

Turning now to a further compound:
Note down Plant response rating recorded for Cc1cc(=O)n(-c2ccc(F)cc2)nc1Cc1ccnc(C(F)(F)F)c1 [Compound 1] 30

###

Test system: barley, spring (spring barley, Hordeum vulgare)
Test: Test D pre-/postemergence controlled growth environment herbicide test
Assay type: in vivo
Settings: Postemergence, 31 g ai/ha, scale 0 to 100
Outcome measure: Plant response rating

Example entries begin here.
{"Structure smiles": "Cc1cc(=O)n(-c2ccc(F)cc2)nc1Cc1ccnc(C(F)(F)F)c1", "Outcome measure": "Plant response rating", "Recorded measurement": 0}
{"Structure smiles": "Cc1cc(=O)n(-c2ccc(F)cc2)nc1Oc1ccnc(C(F)(F)F)c1", "Outcome measure": "Plant response rating", "Recorded measurement": 10}
{"Structure smiles": "COc1cc(=O)n(-c2ccc(F)cc2)nc1Cc1ccnc(C(F)(F)F)c1", "Outcome measure": "Plant response rating", "Recorded measurement": 5}

Continue with the next compound.
Report Plant response rating for Cc1cc(=O)n(-c2ccc(C(F)(F)F)cc2)nc1Cc1ccnc(C(F)(F)F)c1 10

###

Tested on: canarygrass (Phalaris minor)
Experiment: Test D pre-/postemergence controlled growth environment herbicide test
Assay type: in vivo
Conditions: Preemergence, 125 g ai/ha, scale 0 to 100
Outcome measure: Plant response rating
Numbers only.

Example entries begin here.
{"Compound": "Cc1cc(=O)n(-c2ccc(C(F)(F)F)cc2)nc1Cc1ccnc(C(F)(F)F)c1 [Compound 2]", "Plant response rating": 40}
{"Compound": "Cc1cc(=O)n(-c2ccc(F)cc2)nc1Cc1ccnc(C(F)(F)F)c1 [Compound 1]", "Plant response rating": 5}
{"Compound": "Cc1cc(=O)n(-c2ccc(F)cc2)nc1Oc1ccnc(C(F)(F)F)c1 [Compound 14]", "Plant response rating": 35}

Specify measured Plant response rating for COc1cc(=O)n(-c2ccc(F)cc2)nc1Cc1ccnc(C(F)(F)F)c1 [Compound 17] . 10

The values you see were collected from patent US10202361B2.
